Listed next: entries and their corresponding median fluorescence intensity, fold over isotype control.
- study_system: SARS-CoV-2 full length spike protein, V483A mutant, expressed on the surface of CHO cells (SARS-CoV-2, UniProt P0DTC2 14-1273)
property_measured: median fluorescence intensity, fold over isotype control (fold over isotype)

{"columns": ["binder", "unit_text", "reported_measurement"],
 "data": [
  ["antibody 324 (antibody, V domains shown) VH: QVQLQESGPGLVKPSGTLSLTCAVSGGSISSSNWWSWVRQPPGKGLEWIGEIYHSGSTNYNPSLKSRVTISVDNSKNQFSLKLSSVTAADTAVYYCARESVAAAGISYYYYGMDVWGQGTTVTVSS VL: EIVLTQSPGTLSLSPGERATLSCRASQSVSGRYLAWYQQKPGQAPRLLIYGASSRATGIPDRFSGSGSGTDFTLTISRLEPEDFAVYYCQHYGSSPGTFGQGTRLEIK", "fold over isotype", 24.9],
  ["antibody 320 (antibody, V domains shown) VH: QVQLVQSGAEVKKPGASVKVSCKASGYTFTSYGISWVRQAPGQGLEWMGWISAYNGNTNYAQKLQGRVTMTTDTSTRTAYMELRSLRSDDTAVYYCARVGCYYDSSGYSCAENFQHWGQGTLVTVSS VL: QSVLTQPPSVSGAPGQRVTISCTGSSSNIGAGYDVHWYQQLPGTAPKLLIYGNSNRPSGVPDRFSGSKSGTSASLAITGLQAEDEADYYCQSYDSSLSALFGGGTKLTVL", "fold over isotype", 19.7],
  ["antibody 341 (antibody, V domains shown) VH: QLQLQESGPGLVKPSETLSLTCTVSGGSISSSSYYWGWIRQPPGKGLEWIGSIYYSGSTYYNPSLKSRVTISVDTSKNQFSLKLSSVTAADTAVYYCARRPLRYFDWLTNFDYWGQGTLVTVSS VL: EIVLTQSPATLSLSPGERATLSCRASQSVSSYLAWYQQKPGQAPRLLIYDASNRATGIPARFSGSGSGTDFTLTISSLEPEDFAVYYCQQRSNWPITFGQGTRLEIK", "fold over isotype", 1.01],
  ["antibody 345 (antibody, V domains shown) VH: QVQLQESGPGLVKPSQTLSLTCTVSGGSISSGDYYWSWIRQPPGKGLEWIGYIYYSGSTYYNPSLKSRVTISVDTSKNQFSLKLSSVTAADTAVYYCARVGMVDNWNFEGNWFDPWGQGTLVTVSS VL: QSALTQPRSVSGSPGQSVTISCTGTSSDVGGYNYVSWYQQHPGKAPKLMIYDVSKRPSGVPDRFSGSKSGNTASLTISGLQAEDEADYYCCSYAGSVVFGGGTKLTVL", "fold over isotype", 9.41],
  ["antibody 316 (antibody, V domains shown) VH: QVHLVESGGGVVQPGRSLRLSCAASGFTLTAYAMHWVRQAPGKRLEWVALISYDGSVKKYADSVKGRITVSGDTSTNTLHLQMNSLRADDTAVYYCVRGGVSGPNSFDLWGQGTMVTVSS VL: DVVMTQSPLSLPVTLGQPASMSCRSSQSLEYSDGNTYVNWFHQRPGQSPRRLIYKVSYRDSGVPDRFSGSGSGTDFTLQISRVEAEDVGIYYCMQGTHWPVTFGQGTKVEIK", "fold over isotype", 10.4],
  ["antibody 340 (antibody, V domains shown) VH: QVQLVQSGAEVKKPGASVKVSCKASGYTFTSYDINWVRQATGQGLEWMGWMNPNSGNTGYAQKFQGRVTMTRNTSISTAYMELSSLRSEDTAVYYCARGRYCTGGVCWGDWYFDLWGRGTLVTVSS VL: QSVLTQPPSVSGAPGQRVTISCTGSSSNIGAGYDVHWYQQLPGTAPKFLIYGNSNRPSGVPDRFSGSKSGTSASLAITGLQAEDEADYYCQSYDSSLSGPVFGGGTKLTVL", "fold over isotype", 26.3],
  ["antibody 326 (antibody, V domains shown) VH: QITLKESGPTLVKPTQTLTLTCTFSGFSLNTSGVGVGWIRQPPGKALEWLSLIFWNDDKRYSPSLRSRLTITKDTSKNQVVLTMTNMDPVDTATYFCAHRNSGWSLKFDSWGQGSLVTVSA VL: DIQMTQSPSSVSASVGDRVTITCRARQGISSWLVWYQQKPGKAPKLLIFGASSLQSGVPSRFNASGTGTEFTLTISSLQPEDFATYYCQQADSFPITFGQGTRLEIK", "fold over isotype", 10.2],
  ["antibody 327 (antibody, V domains shown) VH: QVQLVESGGGVVQPGRSLRLSCAASGFNLSNYAMHWVRQASGKGLEWVSLISYDGSIKYYTDSVKGRFTVSGDNSKNTLFLQMNSLRPDDSALYYCVRGGVSGPNSFDMWGQGTTVTVSS VL: DVVMTQSPLSLPVTLGQPASISCRSSQSLVYSDGNTYVNWFQQRPGQSPRRLIYQVSIRASGVPDRFSGSGSGTDFALKISRVEAEDVGIYYCMQGTHWPVTFGQGTKVEIK", "fold over isotype", 10.4],
  ["antibody 331 (antibody, V domains shown) V domain 1: QITLKESGPTLVKPTETLTLTCSFSGFSLTKTGEAAGWIRQAPGRALEWVTVIFWDDDKRYSPSLQNRISVTKDTSKNQVVLRMTNVARFDTGTYFCWAMGGPGKEYFGQGTLVAVSS V domain 2: QSVLTQPPSVSGAPGQRVTISCTGTSSSIGPYSDVHWYQHVSGKAPRLLIFGNSNRPSGVPDRFSGSKSGTSASLVIAGLQAEDEADYYCQSYDSSLGEIYVFGTGTTVTVL", "fold over isotype", 18.1],
  ["antibody 339 (antibody, V domains shown) V domain 1: QITLKESGPTLVKPTETLTLTCSFSGFSLTRTGEAAGWIRQAPGRALEWVTVIFWDDDKRYSPSLQSRLTVTKDTSKNQVVLTMTNVARFDTATYFCWAMGGPGKEYFGQGTQVAVSS V domain 2: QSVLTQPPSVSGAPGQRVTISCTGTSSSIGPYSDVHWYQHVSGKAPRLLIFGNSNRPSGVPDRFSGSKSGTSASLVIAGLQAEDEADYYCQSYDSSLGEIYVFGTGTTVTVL", "fold over isotype", 18.2]
]}
